Attribution: ChEMBL document CHEMBL3988442

Exercise: for every item that follows, state its recorded Percent Effect.
target of assay: Tyrosyl-tRNA synthetase, putative (Trypanosoma cruzi (strain CL Brener))
Sequence (whole entry): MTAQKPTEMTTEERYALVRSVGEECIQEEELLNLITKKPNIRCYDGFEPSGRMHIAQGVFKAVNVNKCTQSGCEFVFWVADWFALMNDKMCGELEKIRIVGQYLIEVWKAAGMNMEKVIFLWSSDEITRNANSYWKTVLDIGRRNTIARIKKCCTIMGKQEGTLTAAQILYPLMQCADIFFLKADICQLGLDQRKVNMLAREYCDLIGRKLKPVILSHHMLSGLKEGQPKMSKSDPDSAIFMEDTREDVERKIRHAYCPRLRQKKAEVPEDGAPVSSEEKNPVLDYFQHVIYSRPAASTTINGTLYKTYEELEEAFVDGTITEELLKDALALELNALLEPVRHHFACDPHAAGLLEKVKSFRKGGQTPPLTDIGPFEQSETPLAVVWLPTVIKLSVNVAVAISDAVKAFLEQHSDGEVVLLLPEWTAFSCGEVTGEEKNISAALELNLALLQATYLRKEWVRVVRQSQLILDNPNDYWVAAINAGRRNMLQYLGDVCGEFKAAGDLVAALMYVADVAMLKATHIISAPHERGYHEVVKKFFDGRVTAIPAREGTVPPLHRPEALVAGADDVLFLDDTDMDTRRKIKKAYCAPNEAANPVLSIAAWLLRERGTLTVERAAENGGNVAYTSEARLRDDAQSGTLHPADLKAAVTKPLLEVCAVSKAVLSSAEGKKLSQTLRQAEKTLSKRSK
assay protocol: Trypanosoma cruzi tyrosyl tRNA synthetase (TcYRS) _High Tyrosine SOP
Format: functional
Set-up: scale not given: in the data most compounds retested in dose-response had high values
conditions used: 30 µM
Report the value in % with no unit label.

May I ask what Percent Effect has been recorded for CCc1nccn1C1CCCN(C(=O)c2ccc3nncn3c2)C1 (stereo unspecified) ? 6.8

# lookup: Percent Effect of O=C(O)c1cc(NS(=O)(=O)c2cccc(Cl)c2F)ccc1Cl -11.7

Name the reported Percent Effect value associated with the molecule CCC(NC(=O)c1ccco1)c1ccccc1OCC(=O)N1CCCC1 (stereo unspecified) 3.35

What value of Percent Effect has been reported for the following molecule? CC(=O)N1CCCN(CC(C)(O)c2cccc(C(F)(F)F)c2)CC1 (stereo unspecified) 6.86

Look at this molecule and give its reported Percent Effect. CCn1ccnc1CN1CCCC(CO)(Cc2cccc(Cl)c2)C1 (stereo unspecified) 2.15

# lookup: Percent Effect of COc1cc(C)nc(N2CCN(C(=O)CNC(C)(C)C)CC2)n1 0.478

* * *

target of assay: Tyrosyl-tRNA synthetase, putative (Trypanosoma cruzi (strain CL Brener)) (UniProt Q4DSP6)
Sequence (whole entry): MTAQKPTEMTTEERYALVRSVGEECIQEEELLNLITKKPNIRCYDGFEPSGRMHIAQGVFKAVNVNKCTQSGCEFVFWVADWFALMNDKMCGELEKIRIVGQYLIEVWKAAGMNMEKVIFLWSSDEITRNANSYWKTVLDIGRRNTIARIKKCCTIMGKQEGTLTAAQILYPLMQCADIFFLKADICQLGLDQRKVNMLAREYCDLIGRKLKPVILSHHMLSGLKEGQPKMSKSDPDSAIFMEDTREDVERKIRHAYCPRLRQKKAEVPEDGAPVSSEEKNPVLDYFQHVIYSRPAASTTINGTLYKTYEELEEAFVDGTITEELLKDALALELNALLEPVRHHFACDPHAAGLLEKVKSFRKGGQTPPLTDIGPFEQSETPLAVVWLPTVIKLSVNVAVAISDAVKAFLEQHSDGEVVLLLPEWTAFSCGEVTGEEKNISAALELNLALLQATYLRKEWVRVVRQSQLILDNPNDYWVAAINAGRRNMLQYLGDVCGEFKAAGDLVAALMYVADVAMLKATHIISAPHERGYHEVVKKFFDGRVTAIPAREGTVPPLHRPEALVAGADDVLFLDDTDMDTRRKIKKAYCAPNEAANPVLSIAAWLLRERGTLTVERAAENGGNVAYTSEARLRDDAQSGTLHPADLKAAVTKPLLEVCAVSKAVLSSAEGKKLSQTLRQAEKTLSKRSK
assay protocol: Trypanosoma cruzi tyrosyl tRNA synthetase (TcYRS) _High Tyrosine SOP
Format: functional
Set-up: scale not given: in the data most compounds retested in dose-response had high values
conditions used: 30 µM
Exercise: for every item that follows, state its recorded Percent Effect.
Just the number please, in %, no unit attached.

What value of Percent Effect has been recorded for this entry: Cn1cc(CN2CCOC3(CCCN(C(=O)c4ccco4)C3)C2)cn1 (stereo not given) 3.23

Item Cc1ccsc1C(=O)NCCCn1nc2ccccn2c1=O has what recorded Percent Effect? 5.94

Value lookup for Percent Effect; key = Cc1ccc(Nc2nccc(C3CCCN(CC(=O)N(C)C)C3)n2)nc1 (stereo not given) 11.7

Any idea what Percent Effect was measured for CCn1ncc2c1CCCC2NCc1cccc2c1OCCO2 (stereo not given) ? 0

Endpoint output: Percent Effect of CC(C)(C)c1nnc(CN2CCOC(Cn3cncn3)C2)o1 (stereo not given) . Value? 4.31

For the compound Cc1noc(C)c1CCC(=O)N1CCCN(Cc2cscn2)CC1 , what Percent Effect is on record? 8.33

# input compound: Cc1cc(CN(C)C(=O)NC2CCCN(c3ncccn3)C2)no1 (stereo not given) ; wanted: its Percent Effect 9.31

What does the data say about its Percent Effect? Entry: CCOCCN1CCn2c(C)nnc2C1 4.17

# input compound: COC[C@@]12CCO[C@@H]1CCN(C(=O)Cc1ccccc1F)C2 ; wanted: its Percent Effect 8.33

Given the compound Cc1ccc(CN2CCCn3nnc(COCC4CC4)c3C2)s1 , what is its reported Percent Effect? 5.32

If you can, please state the reported Percent Effect value of O=C(NCC1CC1)[C@H]1C[C@H]2OCC[C@H]2N(Cc2ccsc2)C1 . -2.63

Please look up its Percent Effect: COc1ccccc1OCc1cc(C(=O)N2CC(O)C2)n[nH]1 4.21

What value of measured Percent Effect is listed for COc1c(C2CCCN2C(=O)c2ccnc(N(C)C)c2)c(C)nn1C (stereo not given) ? 4.76

Look at this compound and give its reported Percent Effect. O=C(CSC1CCc2ccccc2NC1=O)NCCO (stereo not given) 5.85

# input compound: CS(=O)(=O)NCC1CCCN(C(=O)COc2ccc(F)cc2)C1 (stereo not given) ; wanted: its Percent Effect 4.31

Quick one: Percent Effect of CN(Cc1ccsc1)C(=O)c1cccc(NS(C)(=O)=O)c1 ? 8.74

So what's the measured Percent Effect for this one? CCc1nc(C2CCCN(C(=O)CN(C)S(C)(=O)=O)C2)no1 (stereo not given) 6.67

Recorded Percent Effect of COC1CC2(CCN(Cc3ccc4c(c3)OCO4)CC2)C1 , please. 6.76

I would be grateful if you could share the reported Percent Effect for COCC1c2nnn(CC3CC3)c2CCN1C(=O)c1ccnnc1 (stereo not given) . 6.45

// returns reported Percent Effect for input Cc1ncsc1C(=O)NCc1cccs1 6.93

Reported Percent Effect for CCC(OC)C(=O)N1CCc2nc(NC)nc(C(=O)N3CCCC3)c2C1 (stereo not given) : what is it? 5.21

Requested field: Percent Effect. Item: CN1CCN(c2cc(CNC(=O)c3ccc(=O)[nH]n3)ccn2)CC1 6.22

Requested field: Percent Effect. Item: COc1ccc(C(C(=O)O)N2CCCN(C3CCCCC3)CC2)cn1 (stereo not given) 2.15

What value of Percent Effect has been recorded for this entry: CC(Nc1cccc(CN2CCOC2=O)c1)C(=O)N1CCNC1=O (stereo not given) 2.39

GET /values?readout=Percent Effect&item= Cc1ccccc1OCCC(=O)OC(C)C(=O)Nc1sccc1C(N)=O (stereo not given) -15.1
